Parameter: binding signal. Scope: all listed entries.
target-desc: MaxL homodimer (Homo sapiens, UniProt P61244 1-160)
Sequence (P61244 whole entry): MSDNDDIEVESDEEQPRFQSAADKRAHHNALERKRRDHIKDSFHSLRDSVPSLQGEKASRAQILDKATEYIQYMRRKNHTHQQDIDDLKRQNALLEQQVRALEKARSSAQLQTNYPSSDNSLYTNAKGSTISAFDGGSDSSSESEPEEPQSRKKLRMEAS
protocol-details: universal protein-binding microarray (PBM); PBS-based mixture, 10 nM His-tagged protein dimer, 2% milk, 200 ng/uL BSA, 50 ng/uL salmon testes DNA, 0.02% TX-100; detection with Alexa 488 anti-His antibody;; high values mean tight binding;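 note: fluorescence intensity normalized to that of the highest-ranked 8-mer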
condition-summary: protein: recombinant; tags: C-terminal His-tag (pET21a); chain copies: 2; dsDNA, one strand shown
Whole data set: some 33,000 sequences, median “normalized occupancy” near 0.075, cut for the highest 2% near 0.095. The sample holds the highest values, similar sequences and a random draw of the others, so the mix is not that of the screen.
Numeric answer only, unit normalized occupancy assumed.

>>> reported("ACTAAGAC")
0.0733
>>> reported("CTCGTGGA")
0.103

What value of binding signal has been reported for the following sequence? TGCGTGAA 0.0808

Give the measured binding signal of CACGCTAC . 0.0972

What does the data say about its binding signal? Entry: CCGAGTAG 0.0732

* * *

target-desc: MaxL homodimer (Homo sapiens, UniProt P61244 1-160)
protocol-details: universal protein-binding microarray (PBM); PBS-based mixture, 10 nM His-tagged protein dimer, 2% milk, 200 ng/uL BSA, 50 ng/uL salmon testes DNA, 0.02% TX-100; detection with Alexa 488 anti-His antibody;; high values mean tight binding;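 note: fluorescence intensity normalized to that of the highest-ranked 8-mer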
condition-summary: protein: recombinant; tags: C-terminal His-tag (pET21a); chain copies: 2; dsDNA, one strand shown
Over roughly 33,000 sequences, “normalized occupancy” has its median near 0.075; the highest 2% begin near 0.095. This excerpt belongs to a sample that is enriched for the highest values.
assay-metric: binding signal
I'd appreciate it if you included the unit after the number.

# count of solved cases: 2
>>> reported("ATAAGTAA")
"0.0793 normalized occupancy"
>>> reported("AACGTTGT")
"0.0817 normalized occupancy"

I am curious: what binding signal value has been reported for ATAACGCC ? 0.0792 normalized occupancy

* * *

target-desc: MaxL homodimer (Homo sapiens, UniProt P61244 1-160)
protocol-details: universal protein-binding microarray (PBM); PBS-based mixture, 10 nM His-tagged protein dimer, 2% milk, 200 ng/uL BSA, 50 ng/uL salmon testes DNA, 0.02% TX-100; detection with Alexa 488 anti-His antibody;; high values mean tight binding;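 note: fluorescence intensity normalized to that of the highest-ranked 8-mer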
condition-summary: protein: recombinant; tags: C-terminal His-tag (pET21a); chain copies: 2; dsDNA, one strand shown
Whole data set: some 33,000 sequences, median “normalized occupancy” near 0.075, cut for the highest 2% near 0.095. The entries come from a sample that favours the highest values as a whole.
This section presents sequences with their documented binding signal values.
// return numeric value only (unit: normalized occupancy, not printed)

Below are worked cases with known answers.
>>> reported("AATGCTCG")
0.0783
>>> reported("AAGTTCAG")
0.0751
>>> reported("CTACATGC")
0.089

// switching to the query sequence
Give binding signal (MaxL homodimer (Homo sapiens, UniProt P61244 1-160)) of the following sequence: AGGTGATC 0.0832

* * *

binding signal values by entry
target-desc: MaxL homodimer (Homo sapiens, UniProt P61244 1-160)
protocol-details: universal protein-binding microarray (PBM); PBS-based mixture, 10 nM His-tagged protein dimer, 2% milk, 200 ng/uL BSA, 50 ng/uL salmon testes DNA, 0.02% TX-100; detection with Alexa 488 anti-His antibody;; high values mean tight binding;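 note: fluorescence intensity normalized to that of the highest-ranked 8-mer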
condition-summary: protein: recombinant; tags: C-terminal His-tag (pET21a); chain copies: 2; dsDNA, one strand shown
The full ranking holds about 33,000 sequences; the median of “normalized occupancy” is about 0.075, and the highest 2% start at about 0.095. This is one part of a sample in which the highest values are shown more often than they occur.
Reply with just the number (in normalized occupancy).

Worked set:
>>> reported("AAACATGA")
0.0907
>>> reported("ACACCTGT")
0.0912
>>> reported("GTGTGTCA")
0.0887
>>> reported("AGGTGGTG")
0.0873
>>> reported("CGGCGTGC")
0.0923

Quick check: binding signal of ACACCTGG ? 0.0881

Look at this sequence and give its reported binding signal. CATCATGG 0.0895

Record request: binding signal value, item CCGTACAC 0.0886

* * *

target-desc: MaxL homodimer (Homo sapiens, UniProt P61244 1-160)
protocol-details: universal protein-binding microarray (PBM); PBS-based mixture, 10 nM His-tagged protein dimer, 2% milk, 200 ng/uL BSA, 50 ng/uL salmon testes DNA, 0.02% TX-100; detection with Alexa 488 anti-His antibody;; high values mean tight binding;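 note: fluorescence intensity normalized to that of the highest-ranked 8-mer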
condition-summary: protein: recombinant; tags: C-terminal His-tag (pET21a); chain copies: 2; dsDNA, one strand shown
Whole data set: some 33,000 sequences, median “normalized occupancy” near 0.075, cut for the highest 2% near 0.095. This excerpt belongs to a sample that is enriched for the highest values.
assay-metric: binding signal (normalized occupancy)
Reply with just the number (in normalized occupancy).

Example entries begin here.
>>> reported("AAATGGGG")
0.0777
>>> reported("CACAAGAG")
0.0792

We next turn to a different sequence, shown below.
What measured binding signal is associated with AGGCACCT on MaxL homodimer (Homo sapiens, UniProt P61244 1-160)? 0.078

* * *

Recorded measurements of binding signal, one per entry
target-desc: MaxL homodimer (Homo sapiens, UniProt P61244 1-160)
protocol-details: universal protein-binding microarray (PBM); PBS-based mixture, 10 nM His-tagged protein dimer, 2% milk, 200 ng/uL BSA, 50 ng/uL salmon testes DNA, 0.02% TX-100; detection with Alexa 488 anti-His antibody;; high values mean tight binding;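 note: fluorescence intensity normalized to that of the highest-ranked 8-mer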
condition-summary: protein: recombinant; tags: C-terminal His-tag (pET21a); chain copies: 2; dsDNA, one strand shown
Over roughly 33,000 sequences, “normalized occupancy” has its median near 0.075; the highest 2% begin near 0.095. This is one part of a sample in which the highest values are shown more often than they occur.
Response body: numeric value in normalized occupancy, unit text excluded.

>>> reported("CCCCCCCA")
0.0901
>>> reported("GGCGTGTA")
0.0895
>>> reported("ATGCACGG")
0.0875
>>> reported("ATGCACGA")
0.0913

Please report the recorded binding signal for ATGACGTG . 0.0885

Reported binding signal for AGCATGAA : what is it? 0.0874

Returns the measured binding signal for the input sequence. Input: GAACATGA 0.0904

Recorded binding signal of ATGTGGCG , please. 0.0879

* * *

target-desc: MaxL homodimer (Homo sapiens, UniProt P61244 1-160)
protocol-details: universal protein-binding microarray (PBM); PBS-based mixture, 10 nM His-tagged protein dimer, 2% milk, 200 ng/uL BSA, 50 ng/uL salmon testes DNA, 0.02% TX-100; detection with Alexa 488 anti-His antibody;; high values mean tight binding;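 note: fluorescence intensity normalized to that of the highest-ranked 8-mer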
condition-summary: protein: recombinant; tags: C-terminal His-tag (pET21a); chain copies: 2; dsDNA, one strand shown
In all, about 33,000 sequences were measured (“normalized occupancy”: median about 0.075, highest 2% from about 0.095 on). Only a selection was taken, and the highest values are over-represented in it overall.
hey, just use T if measured binding signal is less than 0.08 normalized occupancy, otherwise F

// known answers, use as guide
>>> assigned_label("CACATGGA")
"F"
>>> assigned_label("GAGGTGGC")
"T"
>>> assigned_label("GGTGCGGA")
"T"

Please state whether binding signal is below 0.08 normalized occupancy for CTCATGAA F

Check if binding signal falls below 0.08 normalized occupancy for GATCCGCA . T

Lab note: binding signal threshold 0.08 normalized occupancy. Does this sequence come in strictly under it? AAACACGT F

Does this sequence meet the criterion binding signal < 0.08 normalized occupancy? AAACACGA F

Please state whether binding signal is below 0.08 normalized occupancy for CTTACTAA T

binding signal under 0.08 normalized occupancy? Item: CAGGTGGC F

I'd appreciate it if you could check whether GCACACGA has binding signal smaller than 0.08 normalized occupancy. F

# TODO verify binding signal < 0.08 normalized occupancy strictly for this sequence: ACCATGGG F

Quick check: does ACACGCCA have binding signal under 0.08 normalized occupancy? F

I'd appreciate it if you could check whether AAGTGATT has binding signal smaller than 0.08 normalized occupancy. T

Strictly below 0.08 normalized occupancy: is that where binding signal of TCACACGA sits? F

Please let me know if ACACGCTA shows binding signal below 0.08 normalized occupancy. F

Is it true that binding signal reported for ACACACGA is less than 0.08 normalized occupancy? F

Is 0.08 normalized occupancy strictly greater than the sequence's reported binding signal? sequence: GTAGGCTA T

Strictly below 0.08 normalized occupancy in binding signal? ACGCGCTG T

* * *

target-desc: MaxL homodimer (Homo sapiens, UniProt P61244 1-160)
protocol-details: universal protein-binding microarray (PBM); PBS-based mixture, 10 nM His-tagged protein dimer, 2% milk, 200 ng/uL BSA, 50 ng/uL salmon testes DNA, 0.02% TX-100; detection with Alexa 488 anti-His antibody;; high values mean tight binding;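 note: fluorescence intensity normalized to that of the highest-ranked 8-mer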
condition-summary: protein: recombinant; tags: C-terminal His-tag (pET21a); chain copies: 2; dsDNA, one strand shown
In all, about 33,000 sequences were measured (“normalized occupancy”: median about 0.075, highest 2% from about 0.095 on). This excerpt belongs to a sample that is enriched for the highest values.
hey, just use criterion met if measured binding signal is less than 0.09 normalized occupancy, otherwise criterion not met

>>> assigned_label("ACGACGAG")
"criterion met"
>>> assigned_label("ACTGAATC")
"criterion met"
>>> assigned_label("ACCATATG")
"criterion not met"
>>> assigned_label("CTACACGA")
"criterion met"
>>> assigned_label("ACCATATA")
"criterion met"
>>> assigned_label("AGCGTGAT")
"criterion not met"

hey, is binding signal for ATACACGG lower than 0.09 normalized occupancy or not? criterion met

Does the reported binding signal of ACATGACG stay below 0.09 normalized occupancy? criterion met
